Target: phosphor-Axl (Homo sapiens (Human))
Sequence (P30530 26-894): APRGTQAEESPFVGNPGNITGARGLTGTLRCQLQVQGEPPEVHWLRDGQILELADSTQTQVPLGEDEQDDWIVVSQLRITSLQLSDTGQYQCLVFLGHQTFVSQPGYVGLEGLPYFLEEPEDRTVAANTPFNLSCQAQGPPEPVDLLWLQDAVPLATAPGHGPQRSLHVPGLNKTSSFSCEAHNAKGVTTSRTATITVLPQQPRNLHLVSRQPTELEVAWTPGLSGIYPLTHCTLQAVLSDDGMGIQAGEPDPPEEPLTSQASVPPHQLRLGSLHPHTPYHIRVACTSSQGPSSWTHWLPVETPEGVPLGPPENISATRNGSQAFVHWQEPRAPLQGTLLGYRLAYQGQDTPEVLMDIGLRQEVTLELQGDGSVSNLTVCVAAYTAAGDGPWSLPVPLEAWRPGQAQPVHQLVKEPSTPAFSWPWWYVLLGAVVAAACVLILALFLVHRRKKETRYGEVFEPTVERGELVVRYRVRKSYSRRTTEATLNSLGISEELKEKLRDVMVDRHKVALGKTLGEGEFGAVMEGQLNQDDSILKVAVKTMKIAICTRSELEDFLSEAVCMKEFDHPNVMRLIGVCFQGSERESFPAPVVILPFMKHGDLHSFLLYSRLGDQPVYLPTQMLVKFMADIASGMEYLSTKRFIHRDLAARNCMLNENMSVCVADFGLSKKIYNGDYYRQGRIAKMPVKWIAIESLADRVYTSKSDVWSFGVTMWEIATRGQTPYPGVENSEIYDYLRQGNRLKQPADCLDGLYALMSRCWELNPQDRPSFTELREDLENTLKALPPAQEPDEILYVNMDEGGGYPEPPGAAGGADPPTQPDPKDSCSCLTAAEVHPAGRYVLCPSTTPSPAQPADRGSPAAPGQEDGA
Assay: TAM Enzymatic Assay (HTRF), Axl
Conditions: recombinant autophosphorylated Axl, 60 min, room temperature
Experimental: Autophosphorylation of Axl was carried out by incubating the recombinant Axl protein (Life Technologies, PV4275) in buffer containing 50 mM Tris, pH7.5, 0.2 mg/ml Axl, 5 mM ATP, 20 mM MgCl2 and 2 mM DTT at room temperature for 1 hour. The kinase assay buffer contained 50 mM HEPES, pH7.5, 10 mM MgCl2, 1 mM EGTA, 0.01% NP-40 and 2 mM DTT. […] Percentage of inhibition was calculated for each concentration and IC50 value was generated from curve fitting with GraphPad Prism software.
pIC50: −log10 of the molar value.
Each entry below carries its reported pIC50.

Before answering, review these 3 worked examples.
CC(C)n1cc(C(=O)Nc2ccc(-c3cc(C4CCN(C)CC4)n4ncnc(N)c34)cc2)c(=O)n(-c2ccccc2)c1=O [Example 64]: ≥ 8.30
Cc1c(-c2ncco2)cc(C(=O)Nc2ccc(-c3cc(C4CCN(C(=O)C(C)C)CC4)n4ncnc(N)c34)cc2)c(=O)n1-c1ccccn1 [Example 126]: ≥ 8.30
Cc1c(-c2cnn(C)c2)cc(C(=O)Nc2ccc(-c3cc(C4CCN(C(=O)C(C)C)CC4)n4ncnc(N)c34)cc2)c(=O)n1-c1ccccc1 [Example 107]: ≥ 8.30

--- query ---
Quick note, pIC50 for CCc1cc(-c2ccc(NC(=O)c3cccn(Cc4ccccc4)c3=O)cc2)c2c(N)ncnn12 [Example 5] landed at < 7.00
